- System: Escherichia coli
- assay notes: Binding affinity to Escherichia coli MRE600 23S rRNA assessed as protection of U2585 at 5 uM by footprinting assay relative to control in presence of CMCT
readout label: Activity
Please give the number followed by its unit.

Given C=C[C@]1(C)C[C@@H](OC(=O)Cn2cc(COCCn3cnc4c(N)ncnc43)nn2)[C@]2(C)[C@H](C)CC[C@]3(CCC(=O)[C@H]32)[C@@H](C)[C@@H]1O , state its recorded Activity.
27%

Then C=C[C@]1(C)C[C@@H](OC(=O)CO)[C@]2(C)[C@H](C)CC[C@]3(CCC(=O)[C@@H]32)[C@@H](C)[C@@H]1O ?
73%

Then C=C[C@]1(C)C[C@@H](OC(=O)CSC(C)(C)CNC(=O)[C@H](N)C(C)C)[C@]2(C)[C@H](C)CC[C@]3(CCC(=O)[C@H]32)[C@@H](C)[C@@H]1O ?
10%

Then C=C[C@]1(C)C[C@@H](OC(=O)CSCCN(CC)CC)[C@]2(C)[C@H](C)CC[C@]3(CCC(=O)[C@H]32)[C@@H](C)[C@@H]1O ?
41%

Then C=C[C@]1(C)C[C@@H](OC(=O)Cn2cc(CN(CC)CC)nn2)[C@]2(C)[C@H](C)CC[C@]3(CCC(=O)[C@H]32)[C@@H](C)[C@@H]1O ?
51%

###

- System: Staphylococcus aureus
- assay notes: Antimicrobial activity against methicillin-resistant Staphylococcus aureus USA300 after 20 hrs by two-fold broth dilution assay
- Assay type: functional
- experimental context: USA300, 20 h
Exercise: for every item that follows, state its recorded MIC.

Given C=C[C@]1(C)C[C@@H](OC(=O)CSC(C)(C)CNC(=O)[C@H](N)C(C)C)[C@]2(C)[C@H](C)CC[C@]3(CCC(=O)[C@H]32)[C@@H](C)[C@@H]1O [VALNEMULIN] , state its recorded MIC.
0.06 µg/mL

Then C=C[C@]1(C)C[C@@H](OC(=O)CSCCN(CC)CC)[C@]2(C)[C@H](C)CC[C@]3(CCC(=O)[C@H]32)[C@@H](C)[C@@H]1O [TIAMULIN] ?
1 µg/mL

Then C=C[C@]1(C)C[C@@H](OC(=O)Cn2cc(COCCn3cnc4c(N)ncnc43)nn2)[C@]2(C)[C@H](C)CC[C@]3(CCC(=O)[C@H]32)[C@@H](C)[C@@H]1O ?
> 4 µg/mL

Then C=C[C@]1(C)C[C@@H](OC(=O)Cn2cc(-c3cccc(-n4cnc5c(N)ncnc54)c3)nn2)[C@]2(C)[C@H](C)CC[C@]3(CCC(=O)[C@H]32)[C@@H](C)[C@@H]1O ?
0.06 µg/mL

Then C=C[C@]1(C)C[C@@H](OC(=O)Cn2cc(-c3ccc(-n4cnc5c(N)ncnc54)cc3)nn2)[C@]2(C)[C@H](C)CC[C@]3(CCC(=O)[C@H]32)[C@@H](C)[C@@H]1O ?
0.5 µg/mL

Then C=C[C@]1(C)C[C@@H](OC(=O)Cn2cc(/C=C/Cn3cnc4c(N)ncnc43)nn2)[C@]2(C)[C@H](C)CC[C@]3(CCC(=O)[C@H]32)[C@@H](C)[C@@H]1O ?
1 µg/mL

Then C=C[C@]1(C)C[C@@H](OC(=O)Cn2cc(CCCn3cnc4c(N)ncnc43)nn2)[C@]2(C)[C@H](C)CC[C@]3(CCC(=O)[C@H]32)[C@@H](C)[C@@H]1O ?
2 µg/mL

Then C=C[C@]1(C)C[C@@H](OC(=O)Cn2nncc2CCCn2cnc3c(N)ncnc32)[C@]2(C)[C@H](C)CC[C@]3(CCC(=O)[C@H]32)[C@@H](C)[C@@H]1O ?
> 4 µg/mL

Then C=C[C@]1(C)C[C@@H](OC(=O)Cn2cc(CN(CC)CC)nn2)[C@]2(C)[C@H](C)CC[C@]3(CCC(=O)[C@H]32)[C@@H](C)[C@@H]1O ?
> 4 µg/mL
